Values compiled from patent US9708383.

subject_of_test: T1, human GLP-1 receptor (human, UniProt P43220 24-463)
T1 construct: whole, on cells; Used as purified membranes of the transfected hamster cells, not whole cells; also called hGLP-1
protocol_summary: SPA, displacement of 125I-GLP-1(7-36)NH2, 0.005% HSA
Procedure: A shift in the binding affinity, $IC50$, is an indication that the derivative in question binds to albumin, and thereby a prediction of a potential protracted pharmacokinetic profile of the derivative in question in animal models. 25 ul (microliter) of test compounds are added to Optiplate. HSA ("high albumin" experiment containing 2% HSA), or buffer ("low albumin" experiment containing 0.005% HSA), was added (50 ul). […] The plates were centrifuged (1500 rpm, 10 min) and counted in Topcounter.
*1 amine or outer side, *2 acyl side, *3 side chain or, on linkers, in order; H or OH if unused. Where no end group is shown, it is not given here. Side-chain parts run from the residue outwards. γGlu = O=C(O)[C@H](CCC(=O)[*:2])N[*:1]; 13‑carboxytridecanoyl = C14 diacid; AEEA = NCCOCCOCC(=O)O
IC50 values by entry
experimental_endpoint: IC50

{"binder": "HSEGTFTSDVSK([AEEA-AEEA-γGlu-13‑carboxytridecanoyl])YLEEQAVREFIAK([AEEA-AEEA-γGlu-13‑carboxytridecanoyl])LVG [GLP-1 derivative of Example 14: [Ser8,Lys18,Glu22,Val25,Arg26,Lys31,Gly34]-GLP-1-(7-34)-peptide]", "experimental_endpoint": "IC50", "value_reported": "< 1000 nM"}
{"binder": "HAEGTFTSDVSK([AEEA-AEEA-γGlu-13‑carboxytridecanoyl])YLEEQAVREFIAK([AEEA-AEEA-γGlu-13‑carboxytridecanoyl])LVRGRG-NH2 [GLP-1 derivative of Example 133: [Lys18,Glu22,Val25,Arg26,Lys31,Arg34]-GLP-1-(7-37)-peptide amide]", "experimental_endpoint": "IC50", "value_reported": "< 1000 nM"}
